- Tested on: Micrococcus luteus
- MEASUREMENT PROTOCOL: Antimicrobial activity against Sarcina lutea at 100 ug/ml after 24 hrs by agar well diffusion assay
- Format: functional
- STUDY CONDITIONS: read-out: DIZ
Please use satisfied whenever zone of inhibition at 100 µg/mL is not below 20 mm, and not satisfied whenever it is.

Exam item: decide whether the reported zone of inhibition at 100 µg/mL for Cc1ccc(-n2nnc(C3=NNC(c4ccc(F)cc4)C3)c2C)cc1 (stereo not given) is at least 20 mm.
not satisfied

Quick check, zone of inhibition at 100 µg/mL >= 20 mm? Cc1ccc(-n2nnc(C3=NN(c4nc(-c5ccccc5)cs4)C(c4ccc(F)cc4)C3)c2C)cc1 (stereo not given)
satisfied

Test whether the compound Cc1ccc(-n2nnc(C3=NN(C4=NC(=O)CS4)C(c4ccc(F)cc4)C3)c2C)cc1 (stereo not given) records zone of inhibition at 100 µg/mL of 20 mm or higher.
not satisfied

Exam item: decide whether the reported zone of inhibition at 100 µg/mL for "Cc1ccc(-n2nnc(C(=O)/C=C/c3ccc(F)cc3)c2C)cc1" is at least 20 mm.
not satisfied

Determine whether measured zone of inhibition at 100 µg/mL meets or exceeds 20 mm for Cc1ccc(-n2nnc(C3=NN(c4nc(-c5ccc(Br)cc5)cs4)C(c4ccc(F)cc4)C3)c2C)cc1 (stereo not given)
satisfied

Determine whether this compound has zone of inhibition at 100 µg/mL no lower than 20 mm: Cc1ccc(-n2nnc(C3=NNC(c4ccccc4)C3)c2C)cc1 (stereo not given)
satisfied

Test whether the compound "Cc1ccc(-n2nnc(C(=O)/C=C/c3ccccc3)c2C)cc1" records zone of inhibition at 100 µg/mL of 20 mm or higher.
satisfied

Exam item: decide whether the reported zone of inhibition at 100 µg/mL for "Cc1ccc(-n2nnc(C(=O)/C=C/c3ccc(N4CCCCC4)cc3)c2C)cc1" is at least 20 mm.
satisfied

Is zone of inhibition at 100 µg/mL at least 20 mm? Consider Cc1ccc(-n2nnc(C3=NNC(c4ccc(C#N)cc4)C3)c2C)cc1 (stereo not given)
satisfied

Determine whether this compound has zone of inhibition at 100 µg/mL no lower than 20 mm: Cc1ccc(-n2nnc(C3=NN(C(=S)NC(=O)c4ccccc4)C(c4ccc(N5CCCCC5)cc4)C3)c2C)cc1 (stereo not given)
satisfied
